Target: 5-hydroxytryptamine receptor 2C (Homo sapiens, UniProt P28335)
Sequence (P28335 whole entry): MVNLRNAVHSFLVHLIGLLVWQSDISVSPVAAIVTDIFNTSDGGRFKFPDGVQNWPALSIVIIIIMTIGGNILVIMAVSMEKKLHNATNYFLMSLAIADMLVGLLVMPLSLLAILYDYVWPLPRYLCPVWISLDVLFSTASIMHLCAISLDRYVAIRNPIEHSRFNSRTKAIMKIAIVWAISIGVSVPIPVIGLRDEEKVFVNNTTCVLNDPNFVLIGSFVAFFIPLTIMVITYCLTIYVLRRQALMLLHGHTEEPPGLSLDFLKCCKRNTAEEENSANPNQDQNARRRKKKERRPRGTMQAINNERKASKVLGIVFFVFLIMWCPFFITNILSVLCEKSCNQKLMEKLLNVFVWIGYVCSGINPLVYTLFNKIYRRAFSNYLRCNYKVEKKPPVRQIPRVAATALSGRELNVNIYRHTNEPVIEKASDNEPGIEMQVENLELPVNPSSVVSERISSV
OUTCOME_MEASURE: pIC50
FYI, pIC50 means -log10 of a concentration in mol per litre.

Identify measured pIC50 corresponding to Cc1[nH]c2ccc(Cl)cc2c1C1=CCNCC1 6.35

###

Target: 5-hydroxytryptamine receptor 6 (Homo sapiens, UniProt P50406)
Sequence (P50406 whole entry): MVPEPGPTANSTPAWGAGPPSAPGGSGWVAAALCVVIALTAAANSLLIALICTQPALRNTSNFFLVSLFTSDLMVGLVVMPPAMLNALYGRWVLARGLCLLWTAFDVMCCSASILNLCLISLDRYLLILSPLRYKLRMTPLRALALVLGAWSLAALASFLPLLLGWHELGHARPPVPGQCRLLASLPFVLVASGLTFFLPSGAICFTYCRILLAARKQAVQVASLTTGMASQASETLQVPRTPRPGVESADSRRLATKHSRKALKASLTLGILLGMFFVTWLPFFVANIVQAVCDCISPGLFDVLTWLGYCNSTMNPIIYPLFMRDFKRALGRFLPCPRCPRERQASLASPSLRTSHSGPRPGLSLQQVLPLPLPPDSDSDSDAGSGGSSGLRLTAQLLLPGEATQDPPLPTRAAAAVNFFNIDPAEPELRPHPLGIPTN
Assay: Intrinsic activity (IA) at the 5-HT6 receptor determined by measuring their cAMP production in BHK cells and compared to the effect elicited by 5-HT
Assay type: functional, cell-based
Settings: Mesocricetus auratus
Listed next: entries and their corresponding IA.
I'd appreciate it if you wrote the number followed by its unit.

Check out these entries, answers already filled in.
MOLECULE | IA
Cc1[nH]c2ccc(Cl)cc2c1C1=CCNCC1 | 92%
CCc1[nH]c2ccc(OC)cc2c1C1=CCNCC1 | 100%
COc1ccc2[nH]c(C)c(C3=CCNCC3)c2c1 | 100%
CCc1[nH]c2ccc(OC)cc2c1CCN(C)C | 113%
Cc1[nH]c2ccc(Cl)cc2c1C1=CCN(C)CC1 | 152%

Give IA for Cc1[nH]c2ccc(Cl)cc2c1C1=CC2CCC(C1)N2C (stereo not drawn) 75%

Specify measured IA for Cc1[nH]c2ccc(Cl)cc2c1CCN(C)C . 53%

Find the measured IA of COc1ccc2[nH]cc(C3=CCNCC3)c2c1 [RU-24969] and report it. 55%

###

Each entry below carries its reported pIC50.
Molecular target: 5-hydroxytryptamine receptor 4 (Cavia porcellus, UniProt O70528)
Sequence (O70528 whole entry): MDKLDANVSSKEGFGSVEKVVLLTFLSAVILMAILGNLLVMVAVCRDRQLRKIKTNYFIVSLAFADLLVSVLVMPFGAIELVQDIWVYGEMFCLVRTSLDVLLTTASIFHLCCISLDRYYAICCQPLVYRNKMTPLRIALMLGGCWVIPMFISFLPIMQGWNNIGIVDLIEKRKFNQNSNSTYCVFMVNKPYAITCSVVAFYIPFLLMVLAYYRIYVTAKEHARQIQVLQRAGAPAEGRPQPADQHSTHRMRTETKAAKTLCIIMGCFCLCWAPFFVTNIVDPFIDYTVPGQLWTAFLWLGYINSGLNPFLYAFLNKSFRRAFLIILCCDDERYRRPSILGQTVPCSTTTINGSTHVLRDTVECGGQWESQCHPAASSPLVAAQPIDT
Scale note: pIC50 = -log10(concentration in M).

Some solved cases for reference:
SAMPLE_SMILES | pIC50
CCc1[nH]c2ccc(OC)cc2c1CCN(C)C | 7.36
Cc1[nH]c2ccc(Cl)cc2c1C1=CCNCC1 | 6.21

Check the records and state pIC50 for COc1ccc2[nH]c(C)c(C3=CCNCC3)c2c1 5.01

###

Molecular target: 5-hydroxytryptamine receptor 3A (Mus musculus)
pIC50: −log10 of the molar value.
Catalogue of pIC50 values

Guide cases for pIC50, answers given:
SAMPLE_SMILES | pIC50
COc1ccc2[nH]c(C)c(C3=CCNCC3)c2c1 | < 6.00
CCc1[nH]c2ccc(OC)cc2c1CCN(C)C | < 6.00

Write down measured pIC50 (5-hydroxytryptamine receptor 3A (Mus musculus)) for this molecule. Cc1[nH]c2ccc(Cl)cc2c1C1=CCNCC1 7.47
